target: AChE (Homo sapiens); test: biochemical; details: mean ± S.E of three to five independent experiments; read-out: AChE IC50
Sequence (P22303 32-614): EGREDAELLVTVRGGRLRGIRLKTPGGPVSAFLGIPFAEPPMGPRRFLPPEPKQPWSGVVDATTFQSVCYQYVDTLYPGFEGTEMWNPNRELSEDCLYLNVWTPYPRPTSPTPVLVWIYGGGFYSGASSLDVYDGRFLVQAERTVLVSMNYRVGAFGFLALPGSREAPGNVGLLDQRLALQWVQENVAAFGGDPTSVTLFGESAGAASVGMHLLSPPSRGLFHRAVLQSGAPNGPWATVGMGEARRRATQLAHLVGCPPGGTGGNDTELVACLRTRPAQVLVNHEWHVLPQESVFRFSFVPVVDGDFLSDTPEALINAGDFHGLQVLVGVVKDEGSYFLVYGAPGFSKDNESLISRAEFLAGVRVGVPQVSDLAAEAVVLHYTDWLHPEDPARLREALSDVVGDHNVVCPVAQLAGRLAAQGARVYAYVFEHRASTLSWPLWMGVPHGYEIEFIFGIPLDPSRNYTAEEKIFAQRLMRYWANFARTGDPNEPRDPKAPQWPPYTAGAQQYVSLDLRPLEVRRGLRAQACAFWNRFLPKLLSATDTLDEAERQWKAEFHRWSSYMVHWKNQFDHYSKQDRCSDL
TEST_READOUT: IC50
Enter the number, and then the unit.

// known answers, use as guide
[
  {
    "COMPOUND": "N#CC1=C(N)NNC(Nc2cccc(O)c2)=C([N+](=O)[O-])C12C(=O)Nc1c(Br)cc(Br)cc12 (stereo not drawn)",
    "MEASUREMENT_TARGET": "AChE (Homo sapiens)",
    "IC50": "12 µM"
  },
  {
    "COMPOUND": "COc1ccc(OC)c(NC2=C([N+](=O)[O-])C3(C(=O)Nc4c(Br)cc(Br)cc43)C(C#N)=C(N)NN2)c1 (stereo not drawn)",
    "MEASUREMENT_TARGET": "AChE (Homo sapiens)",
    "IC50": "11.3 µM"
  }
]

Okay, next one:
Lab note: compound COc1ccc(NC2=C([N+](=O)[O-])C3(C(=O)Nc4c(C(F)(F)F)cccc43)C(C#N)=C(N)NN2)cc1 (stereo not drawn) tested on AChE (Homo sapiens); recorded IC50 was 17.8 µM

====

Readings of IC50 for the listed compounds
biological target: BChE (Homo sapiens, UniProt P06276); test: BChE inhibition, modified Ellman method; format: biochemical; conditions: mean ± S.E of three to five independent experiments; read-out: BChE IC50
Sequence (P06276 29-602): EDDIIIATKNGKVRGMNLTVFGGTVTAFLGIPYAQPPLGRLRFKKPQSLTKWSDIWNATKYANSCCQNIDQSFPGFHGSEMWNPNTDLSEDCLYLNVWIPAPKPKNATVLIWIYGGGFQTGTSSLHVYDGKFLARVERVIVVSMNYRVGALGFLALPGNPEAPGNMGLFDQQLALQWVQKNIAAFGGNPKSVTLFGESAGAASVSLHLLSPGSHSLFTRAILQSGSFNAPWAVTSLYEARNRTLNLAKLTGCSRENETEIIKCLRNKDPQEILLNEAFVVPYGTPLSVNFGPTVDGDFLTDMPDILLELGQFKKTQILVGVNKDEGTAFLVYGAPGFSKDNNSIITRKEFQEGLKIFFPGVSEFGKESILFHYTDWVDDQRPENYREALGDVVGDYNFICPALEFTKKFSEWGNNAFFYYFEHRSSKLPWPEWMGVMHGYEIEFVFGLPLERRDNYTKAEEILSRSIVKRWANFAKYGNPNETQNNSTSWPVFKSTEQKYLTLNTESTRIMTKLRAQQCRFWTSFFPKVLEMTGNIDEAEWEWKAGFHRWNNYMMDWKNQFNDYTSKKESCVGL
# number only, unit µM dropped from output

[
  {
    "COMPOUND": "N#CC1=C(N)NNC(Nc2ccc(O)cc2)=C([N+](=O)[O-])C12C(=O)Nc1c(Br)cc(Br)cc12 (centres unmarked) [Compound 5r]",
    "MEASUREMENT_TARGET": "BChE (Homo sapiens, UniProt P06276)",
    "TEST_READOUT": "IC50",
    "UNIT_SPEC": "µM",
    "ENDPOINT_RESULT": 45.7
  }
]

Okay, next one:
Lab note: compound COc1ccc(OC)c(NC2=C([N+](=O)[O-])C3(C(=O)Nc4c(Br)cc(Br)cc43)C(C#N)=C(N)NN2)c1 (centres unmarked) [Compound 5p] tested on BChE (Homo sapiens, UniProt P06276); recorded IC50 was 37.9

Taken from paper PMC10366214.
